system: DU-145; assay: NCI tumour cell line growth inhibition, 48 h
Active and inactive are the calls of the source. Cut-off read from the data, not from the text of the source: active = GI50 up to about 1.1 µM and inactive = higher.
Please provide measured GI50 for the entries that follow.

The following compounds have reported results that may help.
1. O=C1Nc2ccccc2C(=O)/C1=C/NC(=S)NCCc1ccccc1 = > 100 µM (inactive)
2. O=C1O/C(=C/c2ccccc2)C(c2ccccc2)=C1O = 26 µM (inactive)

For every listed record, write down its GI50.
1. COc1cc(C2C3=C(N=C4SC(C(C)=O)=C(C)N42)c2ccccc2CC3)cc(OC)c1OC (configuration not stated)
2. COc1c(CCl)cc(-c2cc(=O)c3ccccc3s2)cc1CCl
3. COc1cc2nc(-c3cccs3)oc(=O)c2cc1OC
4. CC(=O)OCCOCn1cnc2c(Cl)nc(Cl)nc21

### Response
1: > 100 µM (inactive); 2: > 100 µM (inactive); 3: > 100 µM (inactive); 4: 19.5 µM (inactive)

For every listed record, write down its GI50.
1. COC(=O)CNS(=O)(=O)c1ccc(-c2c3nc(c(-c4ccc(S(=O)(=O)NCC(=O)OC)cc4)c4ccc([nH]4)c(-c4ccc(S(=O)(=O)NCC(=O)OC)cc4)c4nc(c(-c5ccc(S(=O)(=O)NCC(=O)OC)cc5)c5ccc2[nH]5)C=C4)C=C3)cc1
2. CCN(CC)CCCNc1ncc(C)c2c1c1ccc3c(O)cccc3c1n2C
3. CCOC(=O)c1sc2nc(SC)nc3c2c1NC(=O)CN3c1cccc(F)c1
4. O=C(/C=C/c1ccccc1)NNC(=O)c1c(Cl)c(Cl)c(Cl)c(Cl)c1-c1nc2ccccc2[nH]1

### Response
1. > 100 µM (inactive)
2. 1.57 µM (inactive)
3. 26.7 µM (inactive)
4. 28.6 µM (inactive)

For every listed record, write down its GI50.
1. CC(=O)OCc1ccc(-c2nc(C#N)c(N)o2)o1
2. C=CC1=C(C)c2cc3[nH]c(c4c5nc(cc6[nH]c(cc1n2)c(C)c6CC)C=C5C(=O)C4C(=O)OC)C(CCC(=O)OC/C=C(\C)CCCC(C)CCCC(C)CCCC(C)C)C3C.C=CC1=C(C)c2cc3[nH]c(c4c5nc(cc6[nH]c(cc1n2)c(C=O)c6CC)C=C5C(=O)C4C(=O)OC)C(CCC(=O)OC/C=C(\C)CCCC(C)CCCC(C)CCCC(C)C)C3C (configuration not stated)

### Response
> 10 µM (inactive)
> 100 µM (inactive)

----------
test system: SK-MEL-28; assay: NCI tumour cell line growth inhibition, 48 h
Calls of active or inactive are those of the source. Cut-off read from the data, not from the text of the source: active = GI50 up to about 1.1 µM and inactive = higher.
Please provide measured GI50 for the entries that follow.

The following molecules have reported results that may help.
1) Clc1ccccc1C(n1ncc2ccccc21)n1ncc2ccccc21 = 53.2 µM (inactive)
2) Cc1ccccc1C1=[N+]([O-])c2ccc(Cl)cc2C1=O = 21.1 µM (inactive)
3) Oc1ccc(C(=C(Br)c2ccccc2)c2ccc(O)cc2)cc1 = 10.4 µM (inactive)

For every listed record, write down its GI50.
1. O=C(c1ccccc1)c1c(CC(O)c2ccccc2)n(C(=O)c2ccccc2)c2ccccc12 (stereo unspecified)
2. O=C1CN=C(C[N+](=O)[O-])c2ccccc21

### Response
1. 95.1 µM (inactive)
2. > 100 µM (inactive)

----------
test system: TK-10; experiment: NCI tumour cell line growth inhibition, 48 h
Activity calls are given as the source filed them. Rule as the data show it: active = GI50 up to about 1.1 µM and inactive = higher.
Please provide measured GI50 for the entries that follow.

1. CC(=O)OC1C(O)COC(O[C@H]2CC[C@]34C[C@]35CC[C@]3(C)C([C@@]6(C)CC[C@@H](C(C)(C)O)O6)[C@@H](O)C[C@@]3(C)C5C[C@H](OC3OCC(O)C(O)C3O)[C@H]4C2(C)C)C1OC1OCC(O)C(O)C1O (stereo partly drawn) = > 100 µM (inactive)
2. Cc1c(CCO)c(O)n2c(nc3ccccc32)c1C#N = > 100 µM (inactive)

Continue with the compound presented below.
Field GI50 (entry OCCN1CCN(CCO)Cc2ccccc2OCCOc2ccccc2C1 ) reads > 100 µM (inactive)
